System: HT29 colon
protocol: NCI-60 one-dose screen, 48 h
details: 10 µM unless noted
This is part of a sample that, as a whole, favours compounds with a hit. Of some 83,000 tested, about 20% had one in any assay. The source made the active and inactive calls. The calls were made as follows: active = growth percent below 10; inactive = the rest.
Outcome (select one): label 1 for active, label 0 for inactive

Below, 3 compounds whose answers are already recorded.
compound	groupLabel
O=[N+]([O-])c1ccc(Oc2cccc3c(Oc4ccc([N+](=O)[O-])cc4[N+](=O)[O-])cccc23)c([N+](=O)[O-])c1	label 0
c1ccc2[nH]c(-c3ccc(-c4nccc5c4[nH]c4ccccc45)cc3)nc2c1	label 1
Cn1ccnc1C(=O)/C=C/c1ccc(C(=O)Nc2c(F)c(F)c(F)c(F)c2F)cc1	label 1

Q: Give the logged outcome of this assay for the following compound: `COc1ccc(-c2ccc(-c3ccc(C(=N)N)nc3)s2)cc1`
A: label 1

Q: So what was the verdict on `CCCNNC(=O)c1ccc(CNC(=O)/C=C/c2ccccc2)cc1` in this test?
A: label 0

Q: For CC(C)=CCC[C@](C)(O)C1CC[C@]2(C)[C@@H]1CC[C@@H]1[C@@]3(C)CC/C(=N\OCCC#N)C(C)(C)[C@@H]3CC[C@]12C (some centres undefined) , what call appears in the results of this test?
A: label 0

Q: Please indicate how the test categorized COc1cc2c(c(OC)c1OC)CCC(c1cccc(NC(=O)c3cccc(Cl)c3)c1)O2 (centres undefined) .
A: label 0

Q: // param item: `COC(=O)CNC(=O)c1ccc(NC(=O)c2[nH]c(C)c(Cl)c2Cl)c(O[C@H]2CCNC2)c1` ; yields the recorded call
A: label 0

Q: Entry `Cc1csc(Nc2nc(-c3cccc(Cl)c3)nc(C(Cl)(Cl)Cl)n2)n1` : call = ?
A: label 1

* * *

Test system: HT29 colon
protocol: NCI-60 one-dose screen, 48 h (100 = growth as untreated, 0 = no growth, -100 = all killed)
details: 10 µM unless noted
Compounds without any hit were thinned out: in the full panel of roughly 83,000, 20% have a hit.
The entries below come with measured growth values attached.
Report the value in % with no unit label.

Q: Given the molecule `CC(C)(C)c1ccc(C(=O)Nc2sc3c(c2C#N)CCC(=O)C3)cc1` , what is its reported growth?
A: 5

Q: Look at this molecule and give its reported growth. `COc1ccc(S(=O)(=O)Oc2ccc(-c3sc4cc(OS(=O)(=O)c5ccc(OC)cc5)ccc4c3C(=O)c3ccc(OCCN4CCCCC4)cc3)cc2)cc1`
A: 92

Q: Which growth value belongs to `Cc1ccc(NC(=O)c2ccc(Nc3ncnc4c3cnn4-c3cccc(F)c3)cc2)cc1` ?
A: 98.8

* * *

Test system: MCF7 breast
protocol: NCI-60 one-dose screen, 48 h (100 = growth as untreated, 0 = no growth, -100 = all killed)
details: 10 µM unless noted
Description: Growth inhibition of the MCF7 human tumor cell line is measured as a screen for anti-cancer activity. Cells are grown in 96 well plates and exposed to the test compound for 48 hours. Compounds are tested at a single concentration, which is 10^-5 M for most compounds. The reported endpoint is percent growth (GI% or GIPRCNT), where numbers from 0 - 100% represent growth inhibition, and numbers from -100% - 0 represent cell death. For example, a value of 40 represents 60% growth inhibition. […]
The panel holds about 83,000 compounds, 20% with a hit somewhere; the sample as a whole holds those more often.
Rule: growth under 60% gives condition not met, otherwise condition met.

Use the examples below as a reference point.
compound	groupLabel
CN1CCN(Cc2ccc(NC(=O)c3cncc(C#Cc4c(N)ncc5c(F)cccc45)c3)cc2C(F)(F)F)CC1	condition not met
COc1ccc(-c2ccc(-c3ccc(C(=N)N)nc3)s2)cc1	condition not met
CN1CCN(CC(=O)N(C)c2ccc(N=C(c3ccccc3)c3c(O)[nH]c4ccc([N+](=O)[O-])cc34)cc2)CC1	condition not met
COc1ccc(S(=O)(=O)Oc2ccc(-c3sc4cc(OS(=O)(=O)c5ccc(OC)cc5)ccc4c3C(=O)c3ccc(OCCN4CCCCC4)cc3)cc2)cc1	condition met
CS(=O)(=O)c1cccc(Nc2ncc3cc(-c4ccccc4Cl)ccc3n2)c1	condition not met

# evaluate next
Q: Could you please find out whether `Cc1cc(C(=O)Nc2cc(Nc3ncccc3-c3ncnc4nc[nH]c34)ccc2F)cc(C(C)(C)C#N)c1` has growth that meets 60% or exceeds it?
A: condition met

* * *

Tested on: UACC-257 melanoma
protocol: NCI-60 one-dose screen, 48 h (100 = growth as untreated, 0 = no growth, -100 = all killed)
details: 10 µM unless noted
About 83,000 compounds went through this panel and 20% of them were active in at least one assay; those are over-represented in the sample as a whole. Active and inactive are the calls of the source. The calls were made as follows: active = growth percent below 10; inactive = the rest.
Reported growth by item:

Guide cases for growth, answers given:
compound	dataValue
COc1cc(OC)cc(C(=O)Nc2cnc(Nc3ccc(N4CCOCC4)nc3)nc2Oc2ccc(C(F)(F)F)cc2)c1	16.7% (inactive)
COc1cc(C2CC(c3cccc(Nc4ccncc4)c3)=Nc3c(N)ncnc3N2)cc(OC)c1OC (centres undefined)	88.2% (inactive)
COc1ccc(S(=O)(=O)NC2c3ccccc3CC2O)cc1OC (centres undefined)	111% (inactive)
Cc1cc(C(=O)Nc2cc(Nc3ncccc3-c3ncnc4nc[nH]c34)ccc2F)cc(C(C)(C)C#N)c1	24.5% (inactive)
Cc1ccc(S(=O)(=O)N(CCC(=O)O)c2ccccc2)cc1	102% (inactive)
Cn1cc(-c2ccc3occ(-c4cccc(-c5ccncc5)c4)c3n2)cn1	40.9% (inactive)

Q: Quick check: growth on UACC-257 melanoma, item `CO[C@]12C=C/C(=C(/C(=O)OCc3cccnc3)C(=O)CCCCCCCC[C@]3(OC)C=C/C(=C(/C(=O)OCc4cccnc4)C(=O)CCCCCCCC1)O3)O2` ?
A: -43.2% (active)

Q: Any idea what growth came out for `COc1ccc(NC(=O)CSc2oc(-c3ccccc3)nc2S(=O)(=O)c2ccc(Cl)cc2)c(OC)c1` on UACC-257 melanoma?
A: 40.7% (inactive)

Q: Find growth (UACC-257 melanoma) for the entry `CCCCCCCCCCCCCCCCCCOc1ccccc1CC(=O)OCC[N+]1(C)CCCCC1`
A: 80.6% (inactive)

* * *

Reported growth values follow for various compounds
Test system: MCF7 breast
protocol: NCI-60 one-dose screen, 48 h (100 = growth as untreated, 0 = no growth, -100 = all killed)
details: 10 µM unless noted
About 83,000 compounds went through this panel and 20% of them were active in at least one assay; those are over-represented in the sample as a whole.
Enter your answer as a number in %; do not include the unit.

# annotated cases, reported growth shown
compound	dataValue
COc1ccc(/C=C\c2cc(OC)c(OC)c(OC)c2)cc1OCC(=O)Nc1nc2ccccc2s1	9.7
CC/C(=C(/c1ccc(Cl)cc1)c1ccc(OCCN2CCCC2)cc1)c1ccccc1	23.1
O=C(Nc1cccc(Cn2c(=O)[nH]c3ccc(Oc4ncccn4)cc3c2=O)c1)c1cccc(Cl)c1	40.2
C=C(C[n+]1ccccc1)[C@@H]1CC[C@]2(C(=O)OC)CC[C@]3(C)[C@H](CC[C@@H]4[C@@]5(C)CCC(=O)C(C)(C)[C@@H]5CC[C@]43C)[C@@H]12	82.9

Q: Any idea what its growth is? The compound is O=C1C2C(c3cccs3)C=C(c3ccc(Cl)cc3)N2C(=S)N1c1ccccc1 (stereo not drawn)
A: 90.9

Q: What growth value was documented for this compound, COc1cc(C2=Nc3c(N)nc(N)nc3NC(c3cccc(Nc4ccnc5cc(C(F)(F)F)ccc45)c3)C2)cc(OC)c1OC (stereo not drawn) ?
A: 37.3

Q: Bench note: what growth did `COc1cc2cc(Oc3ccc(NC(=O)Nc4ccc(F)c(C(F)(F)F)c4)cc3)c(C)nc2cc1OCCN1CCCCC1` show?
A: -75

Q: growth for `Cc1nc2ccccc2c(/C=C/c2ccc(Br)cc2)c1C(=O)/C=C/c1ccccc1` ?
A: 14

* * *

Listed below: growth values for each entry.
System: DU-145 prostate
protocol: NCI-60 one-dose screen, 48 h (100 = growth as untreated, 0 = no growth, -100 = all killed)
details: 10 µM unless noted
About 83,000 compounds went through this panel and 20% of them were active in at least one assay; those are over-represented in the sample as a whole.
Report only the number, with the unit % understood.

lineNotation	growth / %
COc1ccc(N/N=C/c2ccc3c(c2)Sc2ccccc2N3C)cc1	58.7
COc1ccc(CNc2ccc3nc(CCC4CCCCC4)[nH]c3c2)cc1	83.4
CN(C)C(=S)NN=C(c1ccccn1)c1ccccn1	-18.9
Cc1ccc(Nc2nc(N)nc(N)c2N=O)cc1Cl	73.7
COC(=O)c1c(C)nc(C)c2c1C(=O)C(Br)=C(NCCN1CCOCC1)C2=O	112

Q: // returns reported growth for input `c1ccc2cc(Cn3cc[n+](Cc4ccc5ccccc5c4)c3)ccc2c1`
A: 53.2

Q: Which measured growth value corresponds to `CN(C)c1ccc(Cc2cc(-c3ccccc3)nn(C/C(=N/O)c3ccccc3)c2=O)cc1` ?
A: 91.8

Q: Please look up its growth: `O=C1/C(=C/c2cccc([N+](=O)[O-])c2)COc2ccc(O)c(O)c21`
A: 2.4
